- target.entity: T1, human CDH6 (full-length and EC domain deletion mutants) (Homo sapiens, UniProt P55285, DEL487-608)
- T1 construct: each one of the five EC domains could be deleted from full-length human CDH6; 3xFLAG (deletion mutants only, from the vector p3×FLAG-CMV-9); expressed in transfected cells; host or cells: 293α cells
- T1 sequence (P55285 with tags, fused parts or gaps DEL487-608): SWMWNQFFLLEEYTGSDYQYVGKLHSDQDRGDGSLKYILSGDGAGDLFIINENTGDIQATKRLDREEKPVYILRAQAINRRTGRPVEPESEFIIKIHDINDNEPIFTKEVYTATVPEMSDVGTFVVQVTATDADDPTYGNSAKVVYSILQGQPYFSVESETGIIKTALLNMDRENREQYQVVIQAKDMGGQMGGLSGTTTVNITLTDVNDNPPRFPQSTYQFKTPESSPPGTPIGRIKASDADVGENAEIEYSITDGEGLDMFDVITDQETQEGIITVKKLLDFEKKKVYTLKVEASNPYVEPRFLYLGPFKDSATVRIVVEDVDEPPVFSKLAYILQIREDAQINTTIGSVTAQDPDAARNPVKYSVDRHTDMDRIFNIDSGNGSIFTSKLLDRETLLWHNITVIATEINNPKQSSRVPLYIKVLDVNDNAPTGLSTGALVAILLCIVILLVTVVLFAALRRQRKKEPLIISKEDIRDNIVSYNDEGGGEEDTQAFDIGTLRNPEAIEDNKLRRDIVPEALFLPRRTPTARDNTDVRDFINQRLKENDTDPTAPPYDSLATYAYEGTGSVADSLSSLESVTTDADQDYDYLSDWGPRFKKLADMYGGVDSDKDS
- experiment.description: Epitope analysis of rat anti-CDH6 antibody by flow cytometry using domain deletion mutants
- Format: binding
- condition.context: flow cytometry; transfected 293α cells; antibody 20 nM

molecule: rG056: rat anti-human CDH6 monoclonal antibody produced by hybridoma rG056; variable regions SEQ ID NO: 30 and 35 (antibody, listed as Rattus norvegicus, V domains shown) VL: DVQMTQSPSSLAASPGESVSISCRATKSIGIYLAWYQQKPGKTFKLLIYSGSTLQSGTPSRFSGSGSGTDFTLTIRSLEPEDFGLYFCQQFYENPFTFGSGTKLEIRRA VH: EVQLQESGPGLVKPSQSLSLTCSVTDYSITTYFWGWIRKFPGNKMEWMGYMSYRGGTSYNPSLKSRISITRDTSKNQFFLQLNSVTTEDTATYYCARCPNYGGHSLVFDYWGQGVMVTVSS
binding to EC5 deletion mutant: bind
